Would you kindly list MIC for each of these compounds?
System: A. fumigatus AF293
Test: Antifungal susceptibility testing, microbroth dilution MIC
Format: cell-based
Conditions: Aspergillus fumigatus, AF293, 48 h, read-out: MIC (μg/mL) against fungi AF293
One number for each entry, in µg/mL.

Below are worked cases with known answers.
| COMPOUND | MIC / µg/mL |
| --- | --- |
| C/C(=N\NC(=S)Nc1cccc(Br)c1)c1ccccn1 [Compound 19q] | 1 |
| C/C(=N\NC(=S)Nc1ccccc1Br)c1ccccn1 [Compound 19r] | 8 |
| CCC/C(=N\NC(=S)Nc1ccccc1Br)c1ccccn1 [Compound 19v] | 4 |
| S=C(N/N=C1\CCCc2cccnc21)N1CCN(c2ccccn2)CC1 [COTI-2, reference compound] | 1 |

What value of measured MIC is listed for COc1ccc(NC(=S)N/N=C(\C)c2ccccn2)cc1 [Compound 19s] ? 8
